Attribution: the supplement of paper PMC10065799

Target: FGFR3 (UniProt P22607)
Sequence (P22607 whole entry, looked up): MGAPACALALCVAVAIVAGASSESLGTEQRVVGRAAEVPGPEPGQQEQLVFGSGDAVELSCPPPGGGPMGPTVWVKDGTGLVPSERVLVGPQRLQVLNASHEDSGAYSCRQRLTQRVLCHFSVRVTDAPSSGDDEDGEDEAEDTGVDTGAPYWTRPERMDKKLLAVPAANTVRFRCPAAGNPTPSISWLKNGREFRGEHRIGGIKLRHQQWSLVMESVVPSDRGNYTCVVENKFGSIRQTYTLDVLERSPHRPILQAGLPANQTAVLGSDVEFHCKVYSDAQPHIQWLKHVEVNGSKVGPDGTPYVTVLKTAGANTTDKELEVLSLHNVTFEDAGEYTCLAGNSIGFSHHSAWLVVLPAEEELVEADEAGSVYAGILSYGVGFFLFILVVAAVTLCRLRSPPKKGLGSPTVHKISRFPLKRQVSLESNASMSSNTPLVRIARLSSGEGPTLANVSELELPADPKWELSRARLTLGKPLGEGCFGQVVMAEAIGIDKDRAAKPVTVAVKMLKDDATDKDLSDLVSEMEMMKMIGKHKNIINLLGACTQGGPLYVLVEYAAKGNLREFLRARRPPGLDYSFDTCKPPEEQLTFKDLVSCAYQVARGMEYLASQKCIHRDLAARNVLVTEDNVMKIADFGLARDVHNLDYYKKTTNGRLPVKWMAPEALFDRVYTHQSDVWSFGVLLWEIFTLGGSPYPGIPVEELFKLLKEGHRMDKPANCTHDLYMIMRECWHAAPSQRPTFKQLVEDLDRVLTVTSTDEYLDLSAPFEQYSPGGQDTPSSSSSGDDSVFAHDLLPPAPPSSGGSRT
Assay: phosphorylation enrichment, bacterial display (enrichment ratio); higher = better substrate or ligand; peptides without Tyr show the background;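 note: 11-residue human phosphosite peptides and single-mutation variants displayed on the E. coli surface, counted by deep sequencing, each peptide's frequency after selection divided by its frequency in the unselected input library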;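 note: frequency after pTyr selection over input frequency; kinase dosed for 20-30% of maximal phosphorylation in three min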
experimental endpoint: phosphorylation enrichment
The response must contain the number and no unit.

Exercise: Lookup: phosphorylation enrichment / FGFR3 (UniProt P22607) / VTGWGYRKLRE [F11_Y521_D526E]
Key: 0.631

Exercise: Request - read-out phosphorylation enrichment | tested on FGFR3 (UniProt P22607) | sequence FPPISYLNAIS [MVD_Y276]
Key: 0.522

Exercise: Identify the measured phosphorylation enrichment of FKEVVYQAMEE [TACC3_Y684_E680K] for FGFR3 (UniProt P22607).
Key: 0.884

Exercise: Param readout= phosphorylation enrichment; system= FGFR3 (UniProt P22607); entry= LAARFYNWVCF [FLT4_Y1231_S1235C_YF] ; returns value.
Key: 2.11

Exercise: Form entry - test system: FGFR3 (UniProt P22607); read-out: phosphorylation enrichment; sequence: ADEQIYWQIAA [CSKtide_2014]
Key: 6.65

Exercise: Missing value: phosphorylation enrichment, FGFR3 (UniProt P22607), entry NFRPGYNNFFN [USH2A_Y467_YF] . Fill in?
Key: 0.549

Exercise: API: value(readout= phosphorylation enrichment, system= FGFR3 (UniProt P22607), query= FLTLHYDAKPQ [ANG_Y38_Q36L] )
Key: 0.575

Exercise: Form: Entry = ASMAKYFASEI [ACADSB_Y372_YF] | System = FGFR3 (UniProt P22607) | phosphorylation enrichment = ____
Key: 0.781

Exercise: Reported phosphorylation enrichment for FGFR3 (UniProt P22607), given WAAQRYGRELR [BAD_Y110] ?
Key: 0.396

Exercise: Please state recorded phosphorylation enrichment (tested on FGFR3 (UniProt P22607)) of SLAARYFNWVS [FLT4_Y1230_YF]
Key: 0.718

Exercise: Report phosphorylation enrichment for VYSSDYFSFVL [USP24_Y2138] tested on FGFR3 (UniProt P22607).
Key: 7.74

Exercise: Please state recorded phosphorylation enrichment (tested on FGFR3 (UniProt P22607)) of WFQTKYEELQV [KRT6B_Y360_I365V_YF]
Key: 0.564

Exercise: Notebook: pull reported phosphorylation enrichment for FGFR3 (UniProt P22607), entry SKGYAYVHFDS [PABPC5_Y149]
Key: 0.749

Exercise: Report phosphorylation enrichment for HFGCIYHGTLL [MET_Y1093_V1092I] tested on FGFR3 (UniProt P22607).
Key: 0.931

Exercise: Tell me reported phosphorylation enrichment for RIFDFYSARKT [STOX1_Y858_A863T_YF] , tested with FGFR3 (UniProt P22607).
Key: 0.496

Exercise: Any idea what phosphorylation enrichment came out for IGEGTYRQVFK [CDK13_Y716_G717R_YF] on FGFR3 (UniProt P22607)?
Key: 0.654

Exercise: Could you share what phosphorylation enrichment was measured for QLGLQYSQGLV [EIF2B4_Y214_R209Q] , tested on FGFR3 (UniProt P22607)?
Key: 0.776

Exercise: FGFR3 (UniProt P22607) / phosphorylation enrichment / RRGTGYTLPLP [MAGEC3_Y152_S155P] : value?
Key: 0.522

Exercise: Please state recorded phosphorylation enrichment (tested on FGFR3 (UniProt P22607)) of EAIAKYDLKAT [GRB2_Y7_F9L]
Key: 0.634

Exercise: Value wanted: phosphorylation enrichment (FGFR3 (UniProt P22607)) of entry GIKAAYEAERG [LMNA_Y81_L85R]
Key: 0.487

Exercise: # value lookup — system FGFR3 (UniProt P22607), readout phosphorylation enrichment, item VTNHIYTWVDP [DFNB31_Y234]
Key: 3.33
